Catalogue of IC50 readings, one per entry.
# System: IFNγ-induced NO production in RAW 264.7 cells
# Test description: Nitric Oxide Suppression Assay (IFNγ-induced NO, Griess nitrite readout)
# Format: cell-based, mouse
# Setup conditions: Mus musculus, RAW264.7, Table 2; RAW 264.7 cells, 2 h pretreatment, 20 ng/mL interferon gamma 24 h; read-out: Avg NO IC50 (nM) (Mean ± SD)
Answer format: numeric, nM implied, no suffix.

# example entries with known answers
| Chemical string | Unit tag | IC50 |
| --- | --- | --- |
| C[C@@H]1[C@H]2[C@H]3C(=O)C=C4[C@@]5(C)C=C(C#N)C(=O)C(C)(C)[C@@H]5CC[C@@]4(C)[C@]3(C)CC[C@@]2(N2CCC2=O)CC[C@H]1C | nM | 21 |
| COC(=O)NC[C@]12CC[C@@H](C)[C@H](C)[C@H]1[C@H]1C(=O)C=C3[C@@]4(C)C=C(C#N)C(=O)C(C)(C)[C@@H]4CC[C@@]3(C)[C@]1(C)CC2 | nM | 5.12 |
| CNC(=O)NC[C@]12CC[C@@H](C)[C@H](C)[C@H]1[C@H]1C(=O)C=C3[C@@]4(C)C=C(C#N)C(=O)C(C)(C)[C@@H]4CC[C@@]3(C)[C@]1(C)CC2 | nM | 5.12 |

Q) Retrieve IC50 measured for C[C@@H]1[C@H]2[C@H]3C(=O)C=C4[C@@]5(C)C=C(C#N)C(=O)C(C)(C)[C@@H]5CC[C@@]4(C)[C@]3(C)CC[C@@]2(Cn2cnnn2)CC[C@H]1C and print it.
A) 8.99

Q) Respond only with IC50 recorded for C[C@@H]1[C@H]2[C@H]3C(=O)C=C4[C@@]5(C)C=C(C#N)C(=O)C(C)(C)[C@@H]5CC[C@@]4(C)[C@]3(C)CC[C@@]2(CN2CCOC2)CC[C@H]1C
A) 38.2

Values compiled from patent US20240140986A1.
